experiment: Cytotoxicity, K562 cell growth inhibition (Cell Counting Kit-8 / WST-8); format: cell-based; settings: human; K562 cells; 6-48 hrs incubation; WST-8 absorbance at 450 nm; concentration inhibiting the cell growth by 50%
pIC50: −log10 of the molar value.
Assign class by pIC50: not lower than 4 means rule met; lower than 4 means rule not met.

The examples below pair each entry with its known result.
INSERT INTO assay_data (molecule, class_name) VALUES
  ('CCOC(=O)C1=CC(c2ccco2)CC(F)(C(=O)OCC)O1 (stereo not drawn)', 'rule not met'),
  ('CCOC(=O)C1=CC(c2ccc(Cl)cc2)CC(F)(C(=O)OCC)O1 (stereo not drawn)', 'rule met');

Check if pIC50 >= 4 (inclusive). Item: CCOC(=O)C1=CC(c2ccc([N+](=O)[O-])cc2)CC(Nc2ccc(OC)cc2)(C(=O)OCC)O1 (stereo not drawn)
rule met

Check if pIC50 >= 4 (inclusive). Item: CCOC(=O)C1=CC(c2ccc(Br)cc2)CC(F)(C(=O)OCC)O1 (stereo not drawn)
rule met

Check if pIC50 >= 4 (inclusive). Item: CCOC(=O)C1=CC(c2ccc([N+](=O)[O-])cc2)CC(C(=O)OCC)=NN1 (stereo not drawn)
rule not met

Check if pIC50 >= 4 (inclusive). Item: O=C(OCc1ccccc1)C1=CC(c2ccccc2)CC(O)(C(=O)OCc2ccccc2)O1 (stereo not drawn)
rule not met

Check if pIC50 >= 4 (inclusive). Item: CCOC(=O)C1=CC(C2CCCCC2)CC(O)(C(=O)OCC)O1 (stereo not drawn)
rule met

Check if pIC50 >= 4 (inclusive). Item: CCOC(=O)C1=CC(c2ccc([N+](=O)[O-])cc2)CC(F)(C(=O)OCC)O1 (stereo not drawn)
rule met

Check if pIC50 >= 4 (inclusive). Item: `CCOC(=O)[C@]1(O)C[C@H](c2ccc(C(F)(F)F)cc2)C[C@](O)(C(=O)OCC)[C@H]1[N+](=O)[O-]`
rule not met

Check if pIC50 >= 4 (inclusive). Item: `O=C(OCc1ccccc1)[C@]1(O)C[C@H](c2ccccc2)C[C@](O)(C(=O)OCc2ccccc2)[C@H]1[N+](=O)[O-]`
rule met

Check if pIC50 >= 4 (inclusive). Item: `CCOC(=O)[C@]1(O)C[C@H](c2ccc(Br)cc2)C[C@](O)(C(=O)OCC)[C@H]1[N+](=O)[O-]`
rule not met

###

# IC50 per entry
Assay: Cytotoxicity, K562 cell growth inhibition (Cell Counting Kit-8 / WST-8)
Type: cell-based
Conditions: human; K562 cells; 6-48 hrs incubation; WST-8 absorbance at 450 nm; concentration inhibiting the cell growth by 50%
Protocol: K562 cells (American Type Culture Collection) were cultured in a culture medium containing 10% (v/v) fetal calf serum (FCS) (manufactures by Sigma) to logarithmic phase. […] After the incubation, an absorbance of formazan, generated by reduction of WST-8 was determined at 450 nm using a microplate reader. The assay readout is correlated with the viable cell numbers. […]
Write the answer as a number in µM, unit excluded.

Take a look at these entries with their results.
INSERT INTO results (compound, measurement_label, reported_value) VALUES
  ('COC(=O)[C@@]1(O)C[C@@H](c2ccc([N+](=O)[O-])cc2)C[C@@](O)(C(=O)OCc2ccccc2)[C@@H]1[N+](=O)[O-]', 'IC50', 90),
  ('CCOC(=O)[C@]1(O)C[C@H](C2CCCCC2)C[C@](O)(C(=O)OCC)[C@H]1[N+](=O)[O-]', 'IC50', 105),
  ('CCOC(=O)C1=CC(c2ccc(Br)cc2)CC(O)(C(=O)OCC)O1 (stereo not shown)', 'IC50', 80);

Assign IC50 to the following record: COC(=O)C1=CC(c2ccc([N+](=O)[O-])cc2)CC(O)(C(=O)OCc2ccccc2)O1 (stereo not shown)
81

# credit: patent US9346780B2
